Recorded values, source patent US6262084A.

# study-system: α4β1 integrin (Homo sapiens, UniProt P05556+P13612)
# Construct: Ramos cells fluorescently labeled with calcein; endogenous in cells; host or cells: Ramos cells
# Sequence (P13612 34-1032): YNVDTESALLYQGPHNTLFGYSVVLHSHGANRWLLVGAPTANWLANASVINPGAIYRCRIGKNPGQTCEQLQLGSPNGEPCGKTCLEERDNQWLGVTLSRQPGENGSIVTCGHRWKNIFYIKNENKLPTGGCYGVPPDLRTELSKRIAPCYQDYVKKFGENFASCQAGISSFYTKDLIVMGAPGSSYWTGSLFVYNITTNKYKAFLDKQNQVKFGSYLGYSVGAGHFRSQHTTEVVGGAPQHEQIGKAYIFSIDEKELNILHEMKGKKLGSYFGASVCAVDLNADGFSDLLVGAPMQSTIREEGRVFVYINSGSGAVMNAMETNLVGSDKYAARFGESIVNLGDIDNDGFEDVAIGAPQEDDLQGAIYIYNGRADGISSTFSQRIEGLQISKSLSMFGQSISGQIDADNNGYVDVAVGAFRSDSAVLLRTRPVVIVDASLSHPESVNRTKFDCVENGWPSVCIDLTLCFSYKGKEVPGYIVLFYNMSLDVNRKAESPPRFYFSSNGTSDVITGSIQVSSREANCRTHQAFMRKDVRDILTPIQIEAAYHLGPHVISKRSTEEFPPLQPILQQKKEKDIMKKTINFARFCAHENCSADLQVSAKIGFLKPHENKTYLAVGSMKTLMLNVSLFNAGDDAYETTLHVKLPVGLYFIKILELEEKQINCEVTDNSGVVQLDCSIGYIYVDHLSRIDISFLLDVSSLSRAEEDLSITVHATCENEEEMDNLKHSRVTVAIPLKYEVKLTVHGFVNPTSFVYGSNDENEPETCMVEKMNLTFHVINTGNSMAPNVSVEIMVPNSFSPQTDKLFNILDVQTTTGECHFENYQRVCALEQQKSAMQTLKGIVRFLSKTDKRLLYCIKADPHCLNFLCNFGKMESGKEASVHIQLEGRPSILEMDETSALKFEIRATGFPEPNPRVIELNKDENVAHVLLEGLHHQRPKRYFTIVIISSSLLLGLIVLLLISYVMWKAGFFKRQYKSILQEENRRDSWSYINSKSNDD
# Sequence (P05556 21-798): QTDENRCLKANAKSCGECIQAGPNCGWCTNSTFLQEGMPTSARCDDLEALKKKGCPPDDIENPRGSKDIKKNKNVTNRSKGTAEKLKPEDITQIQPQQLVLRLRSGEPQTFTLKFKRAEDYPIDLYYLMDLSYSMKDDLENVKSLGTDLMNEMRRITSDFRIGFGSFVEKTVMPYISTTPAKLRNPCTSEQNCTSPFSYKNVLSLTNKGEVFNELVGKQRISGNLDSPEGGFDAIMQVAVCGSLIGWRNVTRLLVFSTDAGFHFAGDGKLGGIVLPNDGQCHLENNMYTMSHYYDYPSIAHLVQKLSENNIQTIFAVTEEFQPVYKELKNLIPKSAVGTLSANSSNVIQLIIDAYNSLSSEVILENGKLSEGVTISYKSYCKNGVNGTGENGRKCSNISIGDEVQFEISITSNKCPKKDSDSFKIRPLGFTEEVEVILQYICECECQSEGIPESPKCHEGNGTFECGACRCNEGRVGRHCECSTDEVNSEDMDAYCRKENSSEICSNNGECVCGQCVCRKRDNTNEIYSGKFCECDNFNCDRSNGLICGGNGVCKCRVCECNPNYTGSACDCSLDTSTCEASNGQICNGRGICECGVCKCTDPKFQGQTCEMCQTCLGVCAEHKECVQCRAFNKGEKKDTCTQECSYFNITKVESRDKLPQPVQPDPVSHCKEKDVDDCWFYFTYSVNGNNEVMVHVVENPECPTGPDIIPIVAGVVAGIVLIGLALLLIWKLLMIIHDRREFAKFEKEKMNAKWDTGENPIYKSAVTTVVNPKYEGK
# experimental-details: Inhibition of adhesion of calcein-labeled Ramos cells to CS1 (fibronectin) peptide-conjugated ovalbumin
# Assay type: cell-based
# condition-description: Table 2; dose required to give 50% inhibition; Ramos cell adhesion to CS1-ovalbumin, 30 minutes at 37° C
# Description: The ability of compounds of the present invention to inhibit binding is described in detail hereinafter in the Examples by a procedure in which a 26-amino acid peptide containing the CS1 sequence of fibroncctin with an N-terminal Cys was coupled to maleimide activated ovalbumin. […] Following three washes with binding buffer, adherent cells were lysed and quantitated using a fluorometer. […]
observation-type: IC50
Write your answer as a measured quantity: the number, then the unit.

Past entries and their recorded results:
CCCC[C@H](NC(=O)N[C@@H](CC(=O)O)c1ccc2c(c1)OCO2)C(=O)NCc1ccc(NCc2cccs2)cc1
30 nM
CCCC[C@H](NC(=O)N[C@@H](CC(=O)O)c1ccc2c(c1)OCO2)C(=O)Nc1ccc(C(C)=O)cc1
1000 nM
CCCC[C@H](NC(=O)N[C@@H](CC(=O)O)c1ccc2c(c1)OCO2)C(=O)NCc1ccc(NCc2cccc(C)n2)cc1
120 nM
CCCC[C@H](NC(=O)N[C@@H](CC(=O)O)c1ccc2c(c1)OCO2)C(=O)NCc1ccc(NCc2ccc(C)s2)cc1
100 nM

Specify IC50 for CCCC[C@H](NC(=O)N[C@@H](CC(=O)O)c1ccc2c(c1)OCO2)C(=O)NCc1ccc(NS(=O)(=O)c2cccs2)cc1 and stop.
60 nM

Specify IC50 for CCCC[C@H](NC(=O)N[C@@H](CC(=O)O)c1ccc2c(c1)OCO2)C(=O)NCc1ccc(NCc2ccccc2C)cc1 and stop.
50 nM

Specify IC50 for CCCC[C@H](NC(=O)N[C@@H](CC(=O)O)c1ccc2c(c1)OCO2)C(=O)NCc1ccc(NCc2nccs2)cc1 and stop.
120 nM

----------
# Lookup of reported inhibition at 100 µM keyed by entry
# study-system: α4β1 integrin (Homo sapiens, UniProt P05556+P13612)
# Construct: Ramos cells fluorescently labeled with calcein; endogenous in cells; host or cells: Ramos cells
# experimental-details: Inhibition of adhesion of calcein-labeled Ramos cells to CS1 (fibronectin) peptide-conjugated ovalbumin
# Type: cell-based
# condition-description: Ramos, Table 1; compound at a concentration of 100 μM; read-out: % A (percent inhibition of cell adhesion)
Entry rule: numbers only, all in %.

Past entries and their recorded results:
CCCS(=O)(=O)Nc1cccc(SC[C@H](CCSC)NC(=O)N[C@@H](CC(=O)O)c2ccc3c(c2)OCO3)c1
100
COC(=O)NCCC[C@@H](CSc1ccccc1)NC(=O)N[C@@H](CC(=O)O)c1ccc2c(c1)OCO2
100
O=C(O)C[C@H](NC(=O)N[C@@H](CCCCNC(=O)OCc1ccccc1)C(=O)NCc1cccs1)C(=O)O
89
O=C(O)C[C@H](NC(=O)NC(CSc1ccccc1)CSc1ccccc1)c1ccc2c(c1)OCO2
99
CCSC[C@@H](CSc1ccccc1)NC(=O)N[C@@H](CC(=O)O)c1ccc2c(c1)OCO2
100

State inhibition at 100 µM (α4β1 integrin (Homo sapiens, UniProt P05556+P13612)) of COC(=O)NCCCC[C@H](NC(=O)N[C@@H](CC(=O)O)c1ccc2c(c1)OCO2)C(=O)NCc1ccc(N(Cc2ccccc2C)Cc2ccccc2C)cc1 .
95

State inhibition at 100 µM (α4β1 integrin (Homo sapiens, UniProt P05556+P13612)) of Cc1ccccc1NC(=O)Nc1ccc(CNC(=O)[C@H](CC(C)C)NC(=O)NC(CC(=O)O)c2ccc3c(c2)OCO3)cc1 (some centres unmarked) .
100

State inhibition at 100 µM (α4β1 integrin (Homo sapiens, UniProt P05556+P13612)) of CSCC[C@@H](CSc1ccccc1)N(C)C(=O)N[C@@H](CC(=O)O)c1ccc2c(c1)OCO2 .
78

----------
# study-system: α4β1 integrin (Homo sapiens, UniProt P05556+P13612)
# Construct: Ramos cells fluorescently labeled with calcein; endogenous in cells; host or cells: Ramos cells
# experimental-details: Inhibition of adhesion of calcein-labeled Ramos cells to CS1 (fibronectin) peptide-conjugated ovalbumin
# Assay type: cell-based
# condition-description: Table 1; dose required to give 50% inhibition; Ramos cell adhesion to CS1-ovalbumin, 30 minutes at 37° C
pIC50: −log10 of the molar value.
Please mark Condition met if the recorded pIC50 is equal to or greater than 6, and Condition not met if it falls below.

Reference set, count: 5
O=C(O)C[C@H](NC(=O)N[C@@H](CSCC1CC1)CSc1ccccc1)c1ccc2c(c1)OCO2
Condition met
CCCSC[C@@H](CSc1ccccc1)NC(=O)N[C@@H](CC(=O)O)c1ccc2c(c1)OCO2
Condition met
CC(C)[C@@H](CSc1ccccc1)NC(=O)NC(CC(=O)O)c1ccc2c(c1)OCO2 (some centres unmarked)
Condition not met
CSCC[C@@H](CSc1ccc(NC(C)=O)cc1)NC(=O)N[C@@H](CC(=O)O)c1ccc2c(c1)OCO2
Condition not met
CSCC[C@@H](CSc1ccc(NCc2ccccc2C)cc1)NC(=O)N[C@@H](CC(=O)O)c1ccc2c(c1)OCO2
Condition not met

Attention now turns to another entry.
Check the entry CSCC[C@@H](CSc1ccccc1)NC(=O)N[C@H](CSc1ccccc1)CC(=O)O [Compound 8] : does pIC50 equal or exceed 6?
Condition not met

----------
# study-system: α4β1 integrin (Homo sapiens, UniProt P05556+P13612)
# Construct: Ramos cells fluorescently labeled with calcein; endogenous in cells; host or cells: Ramos cells
# experimental-details: Inhibition of adhesion of calcein-labeled Ramos cells to CS1 (fibronectin) peptide-conjugated ovalbumin
# Assay type: cell-based
# condition-description: Ramos, Table 1; compound at a concentration of 100 μM; read-out: % A (percent inhibition of cell adhesion)
observation-type: inhibition at 100 µM
Write your answer as a measured quantity: the number, then the unit.

COC(=O)NCCCC[C@H](NC(=O)N[C@@H](CC(=O)O)c1ccc2c(c1)OCO2)C(=O)NCC1CCNCC1
97%
CCOC[C@@H](CSc1ccccc1)OC(=O)N[C@@H](CC(=O)O)c1ccc2c(c1)OCO2
100%
CSCC[C@@H](CSc1cccc(N)c1)NC(=O)N[C@@H](CC(=O)O)c1ccc2c(c1)OCO2
100%

Specify inhibition at 100 µM for CCCCCCCCSC[C@@H](CSc1ccccc1)NC(=O)N[C@@H](CC(=O)O)c1ccc2c(c1)OCO2 and stop.
98%

Specify inhibition at 100 µM for CC(C)(C)OC(=O)C[C@H](NC(=O)N[C@@H](CC(=O)O)c1ccc2c(c1)OCO2)c1ccc2c(c1)OCO2 and stop.
100%

----------
# study-system: α4β1 integrin (Homo sapiens, UniProt P05556+P13612)
# Construct: Ramos cells fluorescently labeled with calcein; endogenous in cells; host or cells: Ramos cells
# experimental-details: Inhibition of adhesion of calcein-labeled Ramos cells to CS1 (fibronectin) peptide-conjugated ovalbumin
# Assay type: cell-based
# condition-description: Ramos, Table 1; compound at a concentration of 100 μM; read-out: % A (percent inhibition of cell adhesion)
observation-type: inhibition at 100 µM (%)
Entry rule: numbers only, all in %.

Past entries and their recorded results:
CSCC[C@@H](CSc1cccc(NS(C)(=O)=O)c1)NC(=O)N[C@@H](CC(=O)O)c1ccc2c(c1)OCO2
100
CCCC[C@@H](CSc1cccc(NCc2ccccc2C)c1)OC(=O)N[C@@H](CC(=O)O)c1ccc2c(c1)OCO2
100
O=C(O)C[C@H](NC(=O)N[C@@H](CCSc1ccccc1)CSc1ccccc1)c1ccc2c(c1)OCO2
100
CSCC[C@@H](CSc1cccc(NC(=O)Nc2ccccc2C)c1)NC(=O)N[C@@H](CC(=O)O)c1ccc2c(c1)OCO2
100
O=C(O)C[C@H](NC(=O)N[C@@H](CCCO)CSc1ccccc1)c1ccc2c(c1)OCO2
100

State inhibition at 100 µM (α4β1 integrin (Homo sapiens, UniProt P05556+P13612)) of COC(=O)NCCCC[C@H](NC(=O)N[C@@H](CC(=O)O)c1ccc2c(c1)OCO2)C(=O)NCCc1ccc(O)cc1 .
100

State inhibition at 100 µM (α4β1 integrin (Homo sapiens, UniProt P05556+P13612)) of CSCC[C@@H](CSc1ccc(NS(=O)(=O)c2ccc(C)cc2)cc1)NC(=O)N[C@@H](CC(=O)O)c1ccc2c(c1)OCO2 .
100

State inhibition at 100 µM (α4β1 integrin (Homo sapiens, UniProt P05556+P13612)) of O=C(O)C[C@H](NC(=O)N[C@@H](CC(=O)O)c1ccc2c(c1)OCO2)c1ccc2c(c1)OCO2 .
99

----------
# study-system: α4β1 integrin (Homo sapiens, UniProt P05556+P13612)
# Construct: Ramos cells fluorescently labeled with calcein; endogenous in cells; host or cells: Ramos cells
# experimental-details: Inhibition of adhesion of calcein-labeled Ramos cells to CS1 (fibronectin) peptide-conjugated ovalbumin
# Assay type: cell-based
# condition-description: Ramos, Table 1; compound at a concentration of 100 μM; read-out: % A (percent inhibition of cell adhesion)
# Lookup of reported inhibition at 100 µM keyed by entry
Entry rule: numbers only, all in %.

Past entries and their recorded results:
COc1ccc(SC[C@H](CCSC)NC(=O)N[C@@H](CC(=O)O)c2ccc3c(c2)OCO3)cc1
100
O=C(O)C[C@H](NC(=O)O[C@H](COCc1ccccc1)CSCc1ccccc1)c1ccc2c(c1)OCO2
100
CC(C)[C@@H](CSCCCc1ccccc1)NC(=O)N[C@@H](CC(=O)O)c1ccc2c(c1)OCO2
99
O=C(O)CSC[C@@H](CSc1ccccc1)NC(=O)N[C@@H](CC(=O)O)c1ccc2c(c1)OCO2
100
CC(C)[C@@H](CS(=O)(=O)Cc1ccccc1)NC(=O)NC(CC(=O)O)c1ccc2c(c1)OCO2 (some centres unmarked)
92

Specify inhibition at 100 µM for CSCC[C@@H](COc1ccccc1)NC(=O)N[C@@H](CC(=O)O)c1ccc2c(c1)OCO2 and stop.
100

Specify inhibition at 100 µM for Cc1ccccc1CNc1ccc(CNC(=O)[C@H](CCCCNC(=O)OCc2ccccc2)NC(=O)N[C@@H](CC(=O)O)c2ccc3c(c2)OCO3)cc1 and stop.
100

Specify inhibition at 100 µM for CCCSC[C@@H](Cc1ccccc1)NC(=O)N[C@@H](CC(=O)O)c1ccc2c(c1)OCO2 and stop.
100

Specify inhibition at 100 µM for COC(=O)NCCCC[C@H](NC(=O)N[C@@H](CC(=O)O)c1ccc2c(c1)OCO2)C(=O)NCc1ccc(OC)c(O)c1 and stop.
100

Specify inhibition at 100 µM for CSCC[C@@H](CSc1ccccc1)NC(=O)N[C@H](CSc1ccccc1)CC(=O)O and stop.
100

Specify inhibition at 100 µM for COC(=O)NCCCC[C@H](NC(=O)N[C@@H](CC(=O)O)c1ccc2c(c1)OCO2)C(=O)NCc1ccc(N)cc1 and stop.
100

Specify inhibition at 100 µM for CC(C)[C@@H](CSc1ccccc1)NC(=O)NC(CC(=O)O)c1ccc2c(c1)OCO2 (some centres unmarked) and stop.
99
